Just for reference, patent US4100299A is where these values come from.

Assay: in vivo
Conditions: mouse, ip
Structures can show the parent of a compound that is named as a salt.
reported_metric: LD50
Quick note: number first, unit second.

Worked examples, 2 compounds total:
> print(dat)
                                   compound     result
1  CC(c1ccccc1)c1ccccc1OCCCN(C)C (stereo not drawn)  155 mg/kg
2  CNCCCCOc1ccccc1C(C)c1ccccc1 (stereo not drawn) [hydrochloride]  140 mg/kg

Attention now turns to another entry.
# LD50 (compound: CC(c1ccccc1)c1ccccc1OCCCCN(C)C (stereo not drawn) [hydrochloride] ) is 110 mg/kg
